- TEST DETAILS: Solubility of compound in FeSSIF at pH 5 measured after 24 hrs by UPLC analysis
- Assay type: physicochemical
RECORDED METRIC: solubility at 24 h (µg/mL)

[[record]]
compound = "Cn1c(=O)n([C@H]2CCC(=O)NC2=O)c2cccc(C#CCOC3CCN(C[C@H]4CC[C@H](n5cc(NC(=O)c6cnn7ccc(N8C[C@H]9C[C@@H]8CO9)nc67)c(C(F)F)n5)CC4)CC3)c21"
recorded_metric = "solubility at 24 h"
value_reported = 33


(I) N#Cc1ccc(O[C@H]2CC[C@H](NC(=O)c3ccc(N4CCC(CN5CCN(c6cc7c(cc6F)C(=O)N([C@H]6CCC(=O)NC6=O)C7=O)CC5)CC4)nn3)CC2)cc1Cl
(II) CCc1cc(N2C(=S)N(c3ccc(C#N)c(C(F)(F)F)c3)C(=O)C2(C)C)ccc1OCCN1CCN(CC(=O)Nc2cccc(NC3CCC(=O)NC3=O)c2)[C@H](C)C1 (stereo partly specified)
[ask] Could you kindly indicate whether I or II has the higher solubility at 24 h value? // respond with label for picked entry
[reply] II

(1) O=C1CC[C@H](N2Cc3cc(N4CCN(CC5CCN(c6ccc([C@@H]7c8ccc(O)cc8CC[C@@H]7c7ccccc7)cc6)CC5)CC4)ccc3C2=O)C(=O)N1
(2) COc1cc(O[C@H]2C(C)(C)[C@H](NC(=O)c3ccc(N4CCC(CN5CCN(c6ccc(C(=O)N[C@H]7CCC(=O)NC7=O)c(F)c6)CC5)CC4)cc3)C2(C)C)ccc1C#N [LUXDEGALUTAMIDE]
[ask] Given 1 and given 2 , which shows the smaller recorded solubility at 24 h? // respond with label for picked entry
[reply] 2
